Measured Signal/Blank accompanies every entry in the list below.
Biological target: T1, Recombinant Human DLL4 (R&D Systems Cat#1506-D4/CF) (human, UniProt Q9NR61 27-524)
T1 construct: Bought recombinant protein; also called delta-like protein 4; rHuman DLL4
Assay: ECL (MSD) multispot binding assay, DLL4 spotted on plate, Fab in solution
attribute.measured: Signal/Blank

[
  {
    "binder": "Fab VH1-46_IGHD6-6*01_IGHJ1*01 S102A/S103P/S104F (APF) & L6_IGKJ1*01 S30L (Fab, V domains shown, Tested as a Fab; Expressed in E. coli from Plasmid A (CH1 with His6 and Flag tags) and Plasmid C (kappa CL); also called APF & S30L) VH: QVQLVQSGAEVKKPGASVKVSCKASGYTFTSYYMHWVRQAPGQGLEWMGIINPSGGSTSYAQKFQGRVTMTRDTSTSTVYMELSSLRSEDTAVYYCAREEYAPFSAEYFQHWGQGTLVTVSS VL: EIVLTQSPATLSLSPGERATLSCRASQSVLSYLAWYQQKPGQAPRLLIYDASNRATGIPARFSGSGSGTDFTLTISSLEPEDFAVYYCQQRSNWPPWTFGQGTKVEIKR",
    "attribute.measured": "Signal/Blank",
    "val": 6.9
  },
  {
    "binder": "Fab VH1-46_IGHD6-6*01_IGHJ1*01 S102A/S103P/S104F/H111F (APFF) & L6_IGKJ1*01 S28G (Fab, V domains shown, Tested as a Fab; Expressed in E. coli from Plasmid A (CH1 with His6 and Flag tags) and Plasmid C (kappa CL); also called APFF & S28G) VH: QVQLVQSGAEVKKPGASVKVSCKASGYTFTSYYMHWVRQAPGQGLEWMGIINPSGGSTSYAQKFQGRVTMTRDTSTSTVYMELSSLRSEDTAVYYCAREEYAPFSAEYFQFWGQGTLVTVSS VL: EIVLTQSPATLSLSPGERATLSCRASQGVSSYLAWYQQKPGQAPRLLIYDASNRATGIPARFSGSGSGTDFTLTISSLEPEDFAVYYCQQRSNWPPWTFGQGTKVEIKR",
    "attribute.measured": "Signal/Blank",
    "val": 533
  },
  {
    "binder": "Fab VH1-46_IGHD6-6*01_IGHJ1*01 S102A/S103P/S104F/H111F (APFF) & L6_IGKJ1*01 S28F (Fab, V domains shown, Tested as a Fab; Expressed in E. coli from Plasmid A (CH1 with His6 and Flag tags) and Plasmid C (kappa CL); also called APFF & S28F) VH: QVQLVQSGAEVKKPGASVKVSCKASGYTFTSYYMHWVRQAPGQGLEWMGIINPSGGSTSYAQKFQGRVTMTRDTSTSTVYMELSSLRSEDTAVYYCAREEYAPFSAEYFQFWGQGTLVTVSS VL: EIVLTQSPATLSLSPGERATLSCRASQFVSSYLAWYQQKPGQAPRLLIYDASNRATGIPARFSGSGSGTDFTLTISSLEPEDFAVYYCQQRSNWPPWTFGQGTKVEIKR",
    "attribute.measured": "Signal/Blank",
    "val": 537
  },
  {
    "binder": "Fab VH1-46_IGHD6-6*01_IGHJ1*01 S102A/S103P/S104F (APF) & L6_IGKJ1*01 S30W (Fab, V domains shown, Tested as a Fab; Expressed in E. coli from Plasmid A (CH1 with His6 and Flag tags) and Plasmid C (kappa CL); also called APF & S30W) VH: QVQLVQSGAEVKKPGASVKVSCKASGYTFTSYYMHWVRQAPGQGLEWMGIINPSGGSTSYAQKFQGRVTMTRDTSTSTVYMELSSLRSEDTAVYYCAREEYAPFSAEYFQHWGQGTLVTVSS VL: EIVLTQSPATLSLSPGERATLSCRASQSVWSYLAWYQQKPGQAPRLLIYDASNRATGIPARFSGSGSGTDFTLTISSLEPEDFAVYYCQQRSNWPPWTFGQGTKVEIKR",
    "attribute.measured": "Signal/Blank",
    "val": 4.3
  }
]
